- Test system: panelists
- Assay comment: Application in toothpaste: duration of perceived cooling sensation after brushing
- Format: in vivo
- Condition: 0.10 g of 10% ethanol solution of compound + 0.03 g saccharin in 9.96 g opaque toothgel base; teeth brushed, mouth rinsed with water
Catalogue of Perceived cooling sensation values
Numbers only here, please. The scale is min.

| Compound | Quantity | Units | Observed |
| --- | --- | --- | --- |
| Cc1[nH]c2ccccc2c1CCNC(=O)[C@@H]1C[C@H](C)CC[C@H]1C(C)C [Example 2I] | Perceived cooling sensation | min | 60 |
| CC(Cc1ccsc1)NC(=O)[C@@H]1C[C@H](C)CC[C@H]1C(C)C (stereo partly shown) [Example 2M] | Perceived cooling sensation | min | 40 |
| CC(C)[C@@H]1CC[C@@H](C)C[C@H]1C(=O)NCCc1ncc[nH]1 [Example 2H] | Perceived cooling sensation | min | 40 |

Switching to the query record.
Item under review: CC(Cc1cccnc1)NC(=O)[C@@H]1C[C@H](C)CC[C@H]1C(C)C (stereo partly shown) [Example 1] . Reported Perceived cooling sensation?
30
